Read-out: xenobiotic metabolism (CYP1A2), CYP1A2 (gene 1544)
Test: CLD_CYP1A2_24hr: CellzDirect (CLD) Gene Expression Assay for xenobiotic metabolism (CYP1A2) at 24 hours (AID 2283683)
Experimental: CLD_24hr is a cell-based, multiplexed-readout assay that uses hepatocyte, a human liver primary cell, with measurements taken at 24 hours after chemical dosing in a 96-well plate.CLD_CYP1A2_24hr is one of 16 assay component(s) measured or calculated from the CLD_24hr assay. […] Furthermore, this assay endpoint can be referred to as a primary readout. […]
Inconclusive results are not listed. Active and inactive are the calls of the source. Rule for the calls: active = hit-call score of the fitted dose curve at least 0.9, where 1 is the maximum; inconclusive = response in the unintended direction; inactive = score below 0.9.
Can you answer with just one of these options? class 1 = active, class 0 = inactive

[
  {
    "compound": "COP(=S)(OC)Oc1ccc(SC)c(C)c1",
    "label_class": "class 1"
  },
  {
    "compound": "C[C@H]1[C@H](c2ccc(Cl)cc2)SC(=O)N1C(=O)NC1CCCCC1",
    "label_class": "class 1"
  },
  {
    "compound": "OCCOc1ccccc1",
    "label_class": "class 0"
  }
]

GET /call?item= CCS(=O)(=O)c1cccnc1S(=O)(=O)NC(=O)Nc1nc(OC)cc(OC)n1 returns the recorded outcome of this test. class 0

GET /call?item= COP(=O)(OC)OC=C(Cl)Cl returns the recorded outcome of this test. class 0

GET /call?item= CCc1ccc(C(=O)NN(C(=O)c2cc(C)cc(C)c2)C(C)(C)C)cc1 returns the recorded outcome of this test. class 1

GET /call?item= CNC(=O)/C=C(\C)OP(=O)(OC)OC returns the recorded outcome of this test. class 0

GET /call?item= CNC(=O)Oc1cccc(N=CN(C)C)c1 returns the recorded outcome of this test. class 0

GET /call?item= C#CCN1C(=O)COc2cc(F)c(N3C(=O)C4=C(CCCC4)C3=O)cc21 returns the recorded outcome of this test. class 0

GET /call?item= O=[N+]([O-])c1c(Cl)c(Cl)c(Cl)c(Cl)c1Cl returns the recorded outcome of this test. class 0

GET /call?item= O=C(O)CCCOc1ccc(Cl)cc1Cl returns the recorded outcome of this test. class 0

GET /call?item= CC[C@H](C)[C@H]1O[C@]2(C=C[C@@H]1C)C[C@@H]1C[C@@H](C/C=C(\C)[C@@H](O[C@H]3C[C@H](OC)[C@@H](O[C@H]4C[C@H](OC)[C@@H](O)[C@H](C)O4)[C@H](C)O3)[C@@H](C)/C=C/C=C3\CO[C@@H]4[C@H](O)C(C)=C[C@@H](C(=O)O1)[C@]34O)O2 (tested in a mixture with another compound) returns the recorded outcome of this test. class 0

GET /call?item= O=C(O)C(F)(F)C(F)(F)C(F)(F)C(F)(F)C(F)(F)C(F)(F)C(F)(F)F returns the recorded outcome of this test. class 0

GET /call?item= CC(C)(C)C(O)/C(=C\c1ccc(Cl)cc1Cl)n1cncn1 (configuration not stated) returns the recorded outcome of this test. class 1

GET /call?item= CNC(=O)CSP(=S)(OC)OC returns the recorded outcome of this test. class 0

GET /call?item= COc1cc(OC)nc(NC(=O)NS(=O)(=O)c2cc(NC=O)ccc2C(=O)N(C)C)n1 returns the recorded outcome of this test. class 0

GET /call?item= Oc1cc(Cl)ccc1Oc1ccc(Cl)cc1Cl returns the recorded outcome of this test. class 0

GET /call?item= Cc1[nH]c(=O)n(C(C)(C)C)c(=O)c1Cl returns the recorded outcome of this test. class 1

GET /call?item= CN1CSC(=S)N(C)C1 returns the recorded outcome of this test. class 0

GET /call?item= CC1(c2ccc(Oc3ccccc3)cc2)OC(=O)N(Nc2ccccc2)C1=O (configuration not stated) returns the recorded outcome of this test. class 0

GET /call?item= CCCN(CCC)c1c([N+](=O)[O-])cc(C(F)(F)F)cc1[N+](=O)[O-] returns the recorded outcome of this test. class 1

GET /call?item= COC(=O)c1ccccc1S(=O)(=O)NC(=O)N(C)c1nc(C)nc(OC)n1 returns the recorded outcome of this test. class 0
